measure-name: glass transition temperature (°C)

Consider the following illustrative entries.
- compound: "*c1ccc(Oc2ccc(C(=O)c3ccc(Oc4ccc(-c5cc(*)[nH]n5)cc4)cc3)cc2)cc1 (repeat unit)"
  output-unit: "°C"
  glass transition temperature: 229.00
- compound: "*CC(*)C1CCCCC1 (repeat unit)"
  output-unit: "°C"
  glass transition temperature: 104.78
- compound: "*c1ccc2cc(OC(=O)c3ccc(C(=O)Oc4ccc5cc(-c6nc7ccccc7nc6*)ccc5c4)cc3)ccc2c1 (repeat unit)"
  output-unit: "°C"
  glass transition temperature: 136.00
- compound: "*Oc1ccc(C(C)(C)c2ccc(OC(=O)c3ccc(C(=O)c4ccc(C(*)=O)cc4)cc3)cc2)cc1 (repeat unit)"
  output-unit: "°C"
  glass transition temperature: 194.00

[a] *c1ccc(OCCCCCCCCCCCCCCCC)c(N2C(=O)CC(C3C=C(C)C4C(=O)N(*)C(=O)C4C3)C2=O)c1 (repeat unit)
[b] *c1ccc(-c2ccc(-c3ccc(-c4cc(-c5ccccc5)c5cc(-c6ccc7nc(*)cc(-c8ccccc8)c7c6)ccc5n4)cc3)cc2)cc1 (repeat unit)
[c] *OC(=O)c1ccc(CCCCCc2ccc(C(*)=O)cc2)cc1 (repeat unit)
Prompt line: Sort ascending by glass transition temperature. Reply with the item labels sorted in the order that was asked for.
Response line: c, a, b
